Reference for the values: paper PMC12860872

- measurement protocol: Extrapolated human dosimetry (OLINDA/EXM, ICRP-89 phantoms)
- condition summary: ICRP 89 Adult Male, extrapolated
Recorded Absorbed dose (AD average) Eyes values for a group of compounds are listed next.
measure name: Absorbed dose (AD average) Eyes (mGy/Mbq)

compound	measure name	meas value
N#C[C@@H]1CC(F)(F)CN1C(=O)CNC(=O)c1ccnc2ccc(OCCCCNC(=O)CC[C@H](NC(=O)CN3CCN(CC(=O)[O-])CCN(CC(=O)[O-])CCN(CC(=O)[O-])CC3)C(=O)NCCCCOc3ccc4nccc(C(=O)NCC(=O)N5CC(F)(F)C[C@H]5C#N)c4c3)cc12.[177Lu+3] [[^177Lu]Lu-DO3A.Glu.(FAPI)2]	Absorbed dose (AD average) Eyes	2.00E-02
N#C[C@@H]1CC(F)(F)CN1C(=O)CNC(=O)c1ccnc2ccc(OCCCCNC(=O)CC[C@H](NC(=O)CN3CCN(CC(=O)[O-])CCN(CC(=O)[O-])CCN(CC(=O)[O-])CC3)C(=O)NCCCCOc3ccc4nccc(C(=O)NCC(=O)N5CC(F)(F)C[C@H]5C#N)c4c3)cc12.[161Tb+3] [[^161Tb]Tb-DO3A.Glu.(FAPI)2]	Absorbed dose (AD average) Eyes	2.80E-02
N#C[C@@H]1CC(F)(F)CN1C(=O)CNC(=O)c1ccnc2ccc(OCCCCNC(=O)CC[C@H](NC(=O)CCC(C(=O)O)N3CCN(CC(=O)[O-])CCN(CC(=O)[O-])CCN(CC(=O)[O-])CC3)C(=O)NCCCCOc3ccc4nccc(C(=O)NCC(=O)N5CC(F)(F)C[C@H]5C#N)c4c3)cc12.[177Lu+3] (stereo partly shown) [[^177Lu]Lu-DOTAGA.Glu.(FAPI)2]	Absorbed dose (AD average) Eyes	1.97E-02
N#C[C@@H]1CC(F)(F)CN1C(=O)CNC(=O)c1ccnc2ccc(OCCCCNC(=O)CC[C@H](NC(=O)CCC(C(=O)O)N3CCN(CC(=O)[O-])CCN(CC(=O)[O-])CCN(CC(=O)[O-])CC3)C(=O)NCCCCOc3ccc4nccc(C(=O)NCC(=O)N5CC(F)(F)C[C@H]5C#N)c4c3)cc12.[161Tb+3] (stereo partly shown) [[^161Tb]Tb-DOTAGA.Glu.(FAPI)2]	Absorbed dose (AD average) Eyes	2.76E-02
